All figures here come from PubChem BioAssay.

- Measurement Protocol: ICB984 medulloblastoma cell growth inhibition, synergistic combos for chromothripsis tumors, cisplatin or BGB combos (AID 1671451);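 also: cells exposed for 96 hours before readout; 0% = vehicle DMSO and 100% = killing by high DMSO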
- Conditions Used: ICB984 medulloblastoma cells, drug combinations, cisplatin combo, at 0.5 µM, stronger effect = higher value
Metric Name: inhibition (%)

1) CN1C[C@@H]2C[C@H]1CN2c1cc2c(cc1F)c(=O)c(C(=O)O)cn2C1CC1    -25.9
2) Cc1ccc2nc(N)[nH]c(=O)c2c1Sc1ccncc1    -25.7
3) CC1(C(=O)O)CCC2(C)CCC3(C)C(=CC(=O)C4C5(C)CCC(OC(=O)CCC(=O)O)C(C)(C)C5CCC43C)C2C1 (centres undefined)    -24
4) N=c1ccn2c(n1)O[C@H]1[C@H](O)[C@@H](CO)O[C@H]12    -20.7

* * *

- Measurement Protocol: growth inhibition of CRL1545 osteosarcoma cells, cell-based, cisplatin and BGB IC20 combos (AID 1671464);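 also: cells exposed to compound for 96 hours before readout; 0% = vehicle DMSO and 100% = high DMSO killing control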
- Conditions Used: at 0.5 µM, stronger effect = higher value
inhibition listing for selected compounds.
Metric Name: inhibition (%)

1) CN1CCN(c2c(F)cc3c(=O)c(C(=O)O)cn(CCF)c3c2F)CC1    -0.47
2) O=C(CCCCCCC(=O)Nc1ccccc1)NO    74.5
3) O=c1[nH]c(=O)n([C@H]2C[C@H](O)[C@@H](CO)O2)cc1Br    8.96
4) O=c1[nH]c(=O)n([C@H]2C[C@H](O)[C@@H](CO)O2)cc1C(F)(F)F    -43.3
5) CN1C[C@@H]2C[C@H]1CN2c1cc2c(cc1F)c(=O)c(C(=O)O)cn2C1CC1    -62.9
6) C[C@@H](CN1CC(=O)NC(=O)C1)N1CC(=O)NC(=O)C1    -44.1
7) O=c1c(O)c(-c2ccc(O)c(O)c2)oc2cc(O)ccc12    -3.43
8) O=c1cc[nH]c(=O)[nH]1    -72
9) CC1(C(=O)O)CCC2(C)CCC3(C)C(=CC(=O)C4C5(C)CCC(OC(=O)CCC(=O)O)C(C)(C)C5CCC43C)C2C1 (configuration not stated)    -42.7
10) Nc1ccc2cc3ccc(N)cc3nc2c1    -34.4
11) N=C(N=C(N)N)N1CCOCC1    2.6
12) N=c1ccn2c(n1)O[C@H]1[C@H](O)[C@@H](CO)O[C@H]12    -32.9

* * *

log fold change Tl+ flux listing for selected compounds.
- Tested on: R275C/beta1
- Measurement Protocol: modulators of BK channel variants, profiling panel, selectivity assay, cell-based, U2OS BacMam, thallium flux, beta subunits (AID 1259406);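 also: initial slope of Thallos dye fluorescence rise after thallium is added; log ratio against the mean of 0.3% DMSO vehicle wells on the same plate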
- Conditions Used: at 30 µM
Active and inactive are the calls of the source.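 Rule for the calls: active = thallium flux through the channel raised or lowered by more than 3 SD from vehicle-only wells, actives on both sides; inactive = the rest.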
Metric Name: log fold change Tl+ flux

1. COc1ccc(/C=C/C(=O)Nc2ccccc2C(=O)O)cc1OC    -0.0786 (inactive)
2. Cn1cc[nH]c1=S    -0.000997 (inactive)
3. CC1=C(/C=C/C(C)=C/C=C/C(C)=C\C(=O)O)C(C)(C)CCC1    -0.0172 (inactive)
4. Nc1ncnc2c1ncn2[C@@H]1O[C@H](CO)[C@@H](O)[C@@H]1O    -0.0305 (inactive)
5. CC(C)NCC(O)COc1ccc(CC(N)=O)cc1 (stereo unspecified)    0.0259 (inactive)
6. COc1c2occc2cc2ccc(=O)oc12    -0.00904 (inactive)

* * *

- Measurement Protocol: growth inhibition of DIPG glioma cells, dose response, cell-based, SU-DIPG-IV, MIPE4.0, CellTiter-Glo, qHTS (AID 1347063);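 also: compound exposure lasted 48 hours before the viability readout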
- Conditions Used: SU-DIPG-IV viability, CellTiter-Glo ATP luminescence
Inconclusive results are not listed. Active and inactive are the calls of the source. No cut-off is given here; in the data, nearly all actives have AC50 up to about 30 µM.
Outcome codes: Yes for active, No for inactive

1) C[C@H](CCC(=O)O)[C@H]1CC[C@H]2[C@@H]3[C@H](O)C[C@@H]4C[C@H](O)CC[C@]4(C)[C@H]3CC[C@]12C    No
2) O[C@@H](CNC[C@H](O)[C@H]1CCc2cc(F)ccc2O1)[C@@H]1CCc2cc(F)ccc2O1    Yes
3) c1cnc2cc3c(cc2n1)C1CNCC3C1    No
4) C=CC1=C(C(=O)O)N2C(=O)[C@@H](NC(=O)/C(=N\O)c3csc(N)n3)[C@H]2SC1 (stereo in doubt)    No
5) COC(=O)C1=C(C)NC(C)=C(C(=O)OCCCN2CCC(c3ccccc3)(c3ccccc3)CC2)C1c1cccc([N+](=O)[O-])c1 (stereo not drawn)    No
6) CCCS(=O)c1ccc2nc(NC(=O)OC)[nH]c2c1 (stereo not drawn)    Yes
7) O=c1c(O)c(-c2ccc(O)cc2O)oc2cc(O)cc(O)c12    No
8) C=C[C@H]1CN2CC[C@H]1C[C@H]2[C@H](O)c1ccnc2ccc(OC)cc12    No

* * *

- Measurement Protocol: antimalarial activity against Dd2 strain (AID 2302);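 also: 0% = DMSO untreated growth and 100% = chloroquine plus artemisinin killed control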
- Conditions Used: P. falciparum Dd2 in RBCs, LDH growth readout, 72 h; at 2 µM; stronger effect = higher value
The source made the active and inactive calls.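 The calls were made as follows: active = growth inhibition above 50% at the single 2 µM test dose, taken to imply half-maximal potency below 2 µM; inactive = the rest.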
Metric Name: growth inhibition

1) CCN(CC(C)O)C(=O)c1ccc(-c2ccc(-c3nc4c(C)cccc4[nH]3)cc2)cc1 (stereo not given)    13% (inactive)
2) CC(CNC(=O)c1cc2c(Cl)cc(Cl)cc2[nH]1)CNc1cc(=O)c2ccccc2[nH]1 (stereo not given)    11% (inactive)
3) NOCCCOc1ccc(Cl)cc1    0% (inactive)
4) O=C(NCCCCCN1CCC(c2c[nH]c3ccccc23)CC1)Nc1ccc(I)cc1    -1% (inactive)
5) Cn1nc(-c2ccc(CN[C@@H]3CCc4ccc(O)cc43)cc2)c2cnc(NCCCN3CCCC3)nc21    61% (active)
6) CC(C)(C)c1ccc(NC(=O)c2cccc(CN3CCCN(Cc4ccc(F)cc4)CC3)c2)cc1    2% (inactive)
7) O=C(NC1CCN(Cc2ccccc2)CC1)c1ccc(-c2nc3cc(F)c(F)cc3[nH]2)s1    97% (active)
8) Oc1ccc(OCc2ccccn2)cc1    0% (inactive)
9) CN(C)CCNC(=O)N1CCCN(c2ncnc3cc(-c4ccccc4)sc23)CC1    37% (inactive)
10) Cc1ccc(NC(=O)NCCCCCN2CCC(c3c[nH]c4ccccc34)CC2)cc1I    5% (inactive)

* * *

- Measurement Protocol: ovarian cancer cell viability with rucaparib, profiling panel, oncology-focused library, rucaparib conditional (AID 1508598)
- Conditions Used: patient-derived ovarian cancer cells, CellTiter-Glo viability, 144 h; at 5 µM; OCI-C5x cells; with rucaparib 10 µM; stronger effect = lower value; 100% = cells with rucaparib alone
Calls of active or inactive are those of the source.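 Rule for the calls: active = normalized viability below 100% at a tested concentration; inactive = the rest.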
Metric Name: viability

1. CNC(=O)c1ccccc1Sc1ccc2c(/C=C/c3ccccn3)n[nH]c2c1    110% (inactive)
2. Nc1cccc2c1CN(C1CCC(=O)NC1=O)C2=O (stereo unspecified)    115% (inactive)
3. FC(F)c1nc2ccccc2n1-c1nc(N2CCOCC2)nc(N2CCOCC2)n1    25.2% (active)
4. CC(C)C[C@H](NC(=O)[C@H](Cc1ccccc1)NC(=O)c1cnccn1)B(O)O    1.34% (active)
5. CN(C)c1nc(N(C)C)nc(N(C)C)n1    109% (inactive)
6. CCN(CC)CCNC(=O)c1c(C)[nH]c(/C=C2\C(=O)Nc3ccc(F)cc32)c1C    60.6% (active)
7. CN(N=O)C(=O)N[C@@H]1[C@@H](O)[C@H](O)[C@@H](CO)O[C@@H]1O    103% (inactive)
8. C#Cc1cccc(Nc2ncnc3cc(OCCOC)c(OCCOC)cc23)c1    39.7% (active)
9. O=C(NOCC1CC1)c1ccc(F)c(F)c1Nc1ccc(I)cc1Cl    87.6% (active)
10. CCc1ccc(CCOc2ccc(CC3SC(=O)NC3=O)cc2)nc1 (stereo unspecified)    105% (inactive)
11. O=C(O[C@@H]1Cc2c(O)cc(O)cc2O[C@@H]1c1cc(O)c(O)c(O)c1)c1cc(O)c(O)c(O)c1    117% (inactive)
12. CC(C)n1c(/C=C/[C@@H](O)C[C@@H](O)CC(=O)O)c(-c2ccc(F)cc2)c2ccccc21    7.97% (active)
13. Nc1ncn([C@H]2C[C@H](O)[C@@H](CO)O2)c(=O)n1    49.1% (active)
14. Clc1ccc(Nc2nnc(Cc3ccncc3)c3ccccc23)cc1    128% (inactive)
15. COc1nc(N)nc2c1ncn2[C@@H]1O[C@H](CO)[C@@H](O)[C@@H]1O    92.9% (active)
16. CNC(=O)c1cc(Oc2ccc(NC(=O)Nc3ccc(Cl)c(C(F)(F)F)c3)cc2)ccn1    123% (inactive)

* * *

fold change listing for selected compounds.
- Measurement Protocol: sensitizers of A549 cells to miR-34 induction, primary screen, imaging, A549 dox-inducible miR-34, nuclei and caspase counts (AID 1347080)
- Conditions Used: A549 miR-34 inducible, Hoechst nuclei count, 48 h; stronger effect = lower value; cell number ratio, induced over uninduced
Metric Name: fold change

1) C[C@]12CC[C@H]3[C@@H](CCC4=CC(=O)CC[C@@]43C)[C@@H]1CC[C@@H]2C(=O)CO    0.793
2) CC(C)(C)NC[C@H](O)COc1cccc2c1CCCC2=O    0.883
3) O=C1OC2(c3ccc(O)cc3Oc3cc(O)ccc32)c2ccccc21    0.894
4) CC(C(=O)O)c1ccc(C(=O)c2ccccc2)s1 (stereo not given)    0.849
5) Cc1c(C)c2c(c(C)c1O)CC[C@@](C)(CCC[C@H](C)CCC[C@H](C)CCCC(C)C)O2    0.864
